These data points were gathered from the supplement of paper PMC10724198.

# System: Saccharomyces cerevisiae;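 note: PSI is a weighted mean of sequencing reads over stability bins, variants kept only with over 10 reads, mCherry proximal and sfGFP distal, peptide attached via GGGS linker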
# test protocol: protein stability index of tFT-peptide fusion (C-terminal peptide) (PSI (0-1 scale)); higher = more stable (slower turnover)
# test context: genetic background: wild type; temperature: 30 C
Please note: Satisfied applies when protein stability index is 0.7 or greater, and Not satisfied applies otherwise.

>  <seq>
FSKTYTIMLITI

>  <label class>
Not satisfied

$$$$

Enquiry: In plain terms: is recorded protein stability index at least 0.7 for ITEYKIKLKNKE ?
Return: Not satisfied

Enquiry: In plain terms: is recorded protein stability index at least 0.7 for NIKIILPWNPPE ?
Return: Not satisfied

Enquiry: In plain terms: is recorded protein stability index at least 0.7 for FLRLGLLQTFSP ?
Return: Not satisfied

Enquiry: In plain terms: is recorded protein stability index at least 0.7 for WGCVGVGGLFSG ?
Return: Not satisfied

Enquiry: In plain terms: is recorded protein stability index at least 0.7 for RAAPQEDFTFYR ?
Return: Satisfied
